- ASSAY_INFO: in vivo phage display selection (4 rounds) with CSF sampling, sequencing of CSF recovered phage clones
- Design: species or system rat
- STATED_CONDITIONS: CSF recovered phage clones after 4 rounds of in vivo selection in rats; 924 sequencing in total
MEASUREMENT_LABEL: Reads
// print number alone

Consider the following illustrative entries.
INSERT INTO assay_data (substance, reading) VALUES
  ('35 (RPRAQGAL; Brain targeting peptide) [compound 35]', 2),
  ('17 (RRPAPLIMFRMI; Brain targeting peptide) [compound 17]', 9),
  ('27 (STMRYVGVTCL; Brain targeting peptide) [compound 27]', 3),
  ('31 (FLIQWGAVLSRG; Brain targeting peptide) [compound 31]', 2),
  ('16 (DVAKVS; Brain targeting peptide) [compound 16]', 10);

Reads for 13 (DAAESVLVGTVR; Brain targeting peptide) [compound 13] is 15

Reads for 25 (LPGGSPGHILVC; Brain targeting peptide) [compound 25] is 4

Reads for 36 (LWVSVPRARIIQ; Brain targeting peptide) [compound 36] is 2

Reads for 6 (GRPQKINGARVC; Brain targeting peptide) [compound 6] is 29
